Recorded %Inh values for a group of compounds are listed next.
# Test system: AURKB
# Conditions: concentration: 1 μM,replicates: in singlicate; n = 1;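 also: KINOMEscan kinase panel screen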

# Compound, %Inh, %
rows = [
    ("OCCn1cc(-c2cnc3nnn(Cc4ccc5ncccc5c4)c3n2)cn1", 0),
    ("COc1ccc(Nc2nccc(N3CCC(NC(=O)c4cccc(C#N)c4)C3)n2)cc1 (stereo not drawn)", 0),
    ("O=C(Nc1cccc(C(F)(F)F)c1)c1cccc(Oc2ccc3nccn3n2)c1", 9),
    ("Nc1nccc(-c2ccc3c(N)n[nH]c3c2)n1", 0),
    ("O=C(NCC1CC1)c1ccc(-c2cc(C(=O)NC3CC3)ccc2F)cc1", 4),
    ("Cc1nnc(-c2ccc3occ(-c4ccc(S(C)=O)cc4)c3n2)o1 (stereo not drawn)", 0),
    ("N#Cc1cccc(C(=O)NC2CCN(c3ccnc(Nc4ccc(F)cc4)n3)C2)c1 (stereo not drawn)", 0),
    ("Cl.Cl.NC[C@H](CC1CCCCC1)NC(=O)c1ccc(-c2ccnc3[nH]ccc23)s1", 96.8),
    ("CC(C(=O)NC1CCN(c2ccnc(Nc3ccc(F)cc3)n2)C1)c1ccc(Cl)cc1 (stereo not drawn)", 36),
]

###

# Test system: FER
# Conditions: concentration: 1 μM,replicates: in singlicate; n = 1

# Compound, Units Of Measure, %Inh
records = [
    ("Cc1ccc(Nc2ccnc(Nc3ccc4c(c3)CS(=O)(=O)C4)n2)cc1O.Cl", "%", 52),
    ("CCN1CCN(CCCC(=O)Nc2n[nH]c3nc(-c4ccc(O)cc4)c(Br)cc23)CC1", "%", 0),
    ("Cc1cccc2c(-c3ccncc3)c(-c3ccc(F)cc3)nn12.Cl", "%", 4),
    ("COc1cc2ncn(-c3cc(OCC4CCCCC4)c(C(N)=O)s3)c2cc1OC", "%", 23),
    ("Cn1ccc2ncnc(Oc3ccc(NC(=O)Nc4cc(C(C)(C)C)on4)c(Cl)c3)c21", "%", 0),
    ("C[C@@H]1CNc2c(sc3ccc4nc(-c5ccncc5)ccc4c23)C(=O)N1", "%", 20),
    ("CN1CCN(CCNc2nc3cc(Oc4ccc(NC(=O)Nc5cc(C(F)(F)F)ccc5F)cc4)ccc3[nH]2)CC1.Cl.Cl", "%", 20),
    ("O=C(Nc1cccc(C(F)(F)F)c1)c1cccc(Oc2ccc3nccn3n2)c1", "%", 5),
    ("Cl.Cl.NC[C@H](CC1CCCCC1)NC(=O)c1ccc(-c2ccnc3[nH]ccc23)s1", "%", 14),
    ("COc1cccc(CNC(=O)NC2CCN(c3ccnc(Nc4cc(OC)c(OC)c(OC)c4)n3)C2)c1 (centres unmarked)", "%", 26),
    ("Cc1ccc(C(=O)Nc2ccc(Oc3ccc4nc(NC(=O)C5CC5)cn4c3)c(F)c2)c(=O)n1-c1ccccc1", "%", 75),
    ("CS(=O)(=O)Nc1ccc(-c2ccnc3[nH]ccc23)cc1", "%", 16),
    ("NC(=O)Nc1sc(-c2ccc(F)cc2)cc1C(N)=O", "%", 0),
    ("Cl.c1ccc(Oc2ccc(Nc3ccnc4cc(-c5ccc(CN6CCNCC6)o5)ccc34)cc2)nc1", "%", 4),
    ("Cn1ccc2ncnc(Oc3ccc(NC(=O)Nc4cccc(C(F)(F)F)c4)c(F)c3)c21", "%", 28),
    ("C[C@@H](Oc1cc(-n2cnc3cc(-c4cnn(C)c4)ccc32)sc1C(N)=O)c1ccccc1Cl", "%", 38),
    ("Cc1nnc(-c2ccc3occ(-c4ccc(S(C)=O)cc4)c3n2)o1 (centres unmarked)", "%", 0),
]

Where do the numbers come from? From paper PMC5540273.
